Source of measurements: patent US4076821A

Assay: in vivo
Conditions: mouse, po
Parameter Measured: LD50

Worked examples, 3 molecules total:
> print(dat)
                                   molecule  parameter.measured  result.value
1  O=C(CCCN1CCC(O)(c2ccc(Cl)cc2)CC1)c1ccc(F)cc1 [Haloperidol, reference compound]                LD50   > 100 mg/kg
2  Cl.OC1(c2ccc(Cl)c(C(F)(F)F)c2)CCN(C2CCC(c3ccc(F)cc3)(c3ccc(F)cc3)CC2)CC1                LD50   ≥ 464 mg/kg
3  O=C1NCN(c2ccc(Cl)cc2)C12CCN(C1CCC(c3ccc(F)cc3)(c3ccc(F)cc3)CC1)CC2                LD50   ≥ 464 mg/kg

Proceed to the following item.
LD50 reading for O=c1[nH]c2ccccc2n1C1CCN(CCCC(c2ccc(F)cc2)c2ccc(F)cc2)CC1 [Pimozide, reference compound] : > 1000 mg/kg
